Biological target: T1, S. mutans ComD histidine kinase receptor (Streptococcus mutans)
T1 chain: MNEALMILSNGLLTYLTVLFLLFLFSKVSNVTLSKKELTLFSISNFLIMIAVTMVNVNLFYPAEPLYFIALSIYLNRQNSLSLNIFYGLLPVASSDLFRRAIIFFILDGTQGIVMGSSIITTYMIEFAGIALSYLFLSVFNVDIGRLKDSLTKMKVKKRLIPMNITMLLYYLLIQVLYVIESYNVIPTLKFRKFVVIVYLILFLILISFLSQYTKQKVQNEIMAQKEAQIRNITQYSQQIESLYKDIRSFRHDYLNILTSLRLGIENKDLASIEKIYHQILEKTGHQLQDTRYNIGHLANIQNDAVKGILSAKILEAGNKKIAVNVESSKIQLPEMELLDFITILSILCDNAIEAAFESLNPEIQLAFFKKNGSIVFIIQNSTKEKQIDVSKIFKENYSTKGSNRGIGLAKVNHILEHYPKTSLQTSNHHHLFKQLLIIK
Assay: cell-based or functional assay
assayMetric: Transformation efficiency (vs 5 µg CSP), 5 µg/ml peptide, S. mutans wild-type UA159 (fold decrease)
Value expressed in fold decrease; do not type the unit.

SGSLSTFFRLFNRSFTQAGK [CSP peptide analog G1] = 2
SGSSTFFRLFNRSFTQALGK [CSP peptide analog D1] = 6
SGSLSTFFALFNRSFTQALGK [CSP peptide analog C2] = 48

Read off the recorded Transformation efficiency (vs 5 µg CSP), 5 µg/ml peptide, S. mutans wild-type UA159 for SGTLSTFFRLFNRSFTQA [CSP peptide analog B3] 8
